Hello, the source for this data is patent US20260317337A1, in case you need it.

Target: α-synuclein fibrils (Homo sapiens, UniProt P37840)
Assay: Competitive radioligand binding with [^3H]BF2846 on α-synuclein fibrils
Conditions: [^3H]BF2846, α-synuclein fibrils; mean + Sd, n = 3; read-out: α-syn Ki
pKi: −log10 of the molar value.
Is pKi at least 8? Then rule met. If not, rule not met.

STRUCTURE_SMILES: COc1ccc(C(=O)Nc2ccc(N3C4CCC3CN(c3cnc5ccccc5n3)C4)cc2)cc1
GROUP: rule not met
--
STRUCTURE_SMILES: CCOC(=O)c1cnc(N2C3CCC2CN(c2nc4ccccc4s2)C3)nc1N
GROUP: rule not met
--
STRUCTURE_SMILES: COc1ccc(NC(=O)c2cnc(N3CCN(c4nc5ccccc5s4)CC3)nc2N)cc1
GROUP: rule met
--
STRUCTURE_SMILES: COc1ccc(NC(=O)c2cnc(N3CCN(c4cccnc4)CC3)nc2N)cc1
GROUP: rule not met
--
STRUCTURE_SMILES: CCOC(=O)c1cnc(N2CCN(c3nccs3)CC2)nc1N
GROUP: rule not met
--
STRUCTURE_SMILES: CCOC(=O)c1cnc(N2CCN(c3cnc4ccccc4c3)CC2)nc1N
GROUP: rule met
--
STRUCTURE_SMILES: Nc1nc(N2CCN(c3ccccn3)CC2)ncc1C(=O)Nc1ccc(OC[C@@H](O)CF)cc1
GROUP: rule not met
--
STRUCTURE_SMILES: COc1ccc(NC(=O)c2cnc(N3CC4CCC(C3)N4c3cnc4ccccc4c3)nc2N)cc1
GROUP: rule not met
--
STRUCTURE_SMILES: COc1ccc(NC(=O)c2cnc(N3C4CCC3CN(c3cc5ccccc5cn3)C4)nc2N)cc1
GROUP: rule not met
--
STRUCTURE_SMILES: COc1ccc(NC(=O)c2cnc(N3CC4CCC(C3)N4c3cc4ccccc4cn3)nc2N)cc1
GROUP: rule not met

###

Molecular target: α-synuclein fibrils (Homo sapiens, UniProt P37840)
Experiment: Competitive radioligand binding with [^3H]BF2846 on α-synuclein fibrils
Settings: [^3H]BF2846, α-synuclein fibrils; mean + Sd, n = 3; read-out: α-syn Ki
Description: Competition binding assays were performed with [^3H]BF2846 and [^3H]PIB to measure affinity to Asyn and Aβ. […]
pKi: −log10 of the molar value.

COMPOUND: COc1ccc(NC(=O)c2cnc(Cl)nc2)cc1 [Compound 43]
pKi: 8.19
//
COMPOUND: CCOC(=O)c1cnc(N2CCCN(c3cnc4ccccc4c3)CC2)nc1N [Compound 8]
pKi: 7.82
//
COMPOUND: CCOC(=O)c1cnc(N2CC3CCC(C2)N3c2cc3ccccc3cn2)nc1N [Compound 5]
pKi: 7.23
//
COMPOUND: CCOC(=O)c1cnc(N2CCN(c3ccccn3)CC2)nc1N [Compound 9]
pKi: 8.40
//
COMPOUND: Nc1nc(N2CCN(c3ccccn3)CC2)ncc1C(=O)Nc1ccc(F)cc1 [Compound 34]
pKi: 8.00
//
COMPOUND: CCOC(=O)c1cnc(N2CCN(c3ncccn3)CC2)nc1N [Compound 119]
pKi: 7.71
//
COMPOUND: COc1ccc(C(=O)Nc2ccc(N3C4CCC3CN(c3ccccn3)C4)cc2)cc1 [Compound 103]
pKi: 8.21
//
COMPOUND: COc1ccc(NC(=O)c2cnc(N3CCN(c4nccs4)CC3)nc2N)cc1 [Compound 124]
pKi: 7.52

###

The reader will find reported Ki values listed item by item below.
Target: α-synuclein fibrils (Homo sapiens, UniProt P37840)
Test: Competitive radioligand binding with [^3H]BF2846 on α-synuclein fibrils
Details: [^3H]BF2846, α-synuclein fibrils; mean + Sd, n = 3; read-out: α-syn Ki
Method: Competition binding assays were performed with [^3H]BF2846 and [^3H]PIB to measure affinity to Asyn and Aβ. […]

STRUCTURE_SMILES: CCOC(=O)c1cnc(N2CC3CCC(C2)N3c2ccccn2)nc1N
UNIT_TEXT: nM
Ki: 5.5

STRUCTURE_SMILES: Nc1nc(N2CCN(c3nc4ccccc4o3)CC2)ncc1C(=O)Nc1ccc(OCCF)cc1
UNIT_TEXT: nM
Ki: 1.26

STRUCTURE_SMILES: COc1ccc(C(=O)Nc2ccc(N3C4CCC3CN(c3ccccn3)C4)cn2)cc1
UNIT_TEXT: nM
Ki: 44.1

STRUCTURE_SMILES: COc1ccc(NC(=O)c2cnc(N3CCN(c4ccc(OC)cc4)CC3)nc2N)cc1
UNIT_TEXT: nM
Ki: 44.5

STRUCTURE_SMILES: COc1ccc(C(=O)Nc2ccc(N3CC(OC)C3)cc2)cc1
UNIT_TEXT: nM
Ki: 28.6

STRUCTURE_SMILES: CCOC(=O)c1cnc(N2CCN(c3ccc4ccccc4n3)CC2)nc1N
UNIT_TEXT: nM
Ki: 10.8

STRUCTURE_SMILES: CCOC(=O)c1cnc(N2CCN(c3nc4ccccc4o3)CC2)nc1N
UNIT_TEXT: nM
Ki: 2.5

STRUCTURE_SMILES: COc1ccc(C(=O)Nc2ccc(N3CCCN(c4ccccn4)CC3)cc2)cc1
UNIT_TEXT: nM
Ki: 8.7

STRUCTURE_SMILES: Nc1nc(N2CCN(c3ccccn3)CC2)ncc1C(=O)OCCO
UNIT_TEXT: nM
Ki: 41.4

STRUCTURE_SMILES: CCOC(=O)c1cnc(N2CC3CCC(C2)N3c2cnc3ccccc3c2)nc1N
UNIT_TEXT: nM
Ki: 9.9

STRUCTURE_SMILES: COc1ccc(C(=O)Nc2ccc(N3CCC4(CC3)CCN(c3ccccn3)C4)cc2)cc1
UNIT_TEXT: nM
Ki: 21.9

STRUCTURE_SMILES: CCOC(=O)c1cnc(N2CCN(c3cnc4ccccc4n3)CC2)nc1N
UNIT_TEXT: nM
Ki: 2.4

STRUCTURE_SMILES: CCOC(=O)c1cnc(N2C3CCC2CN(c2cnc4ccccc4c2)C3)nc1N
UNIT_TEXT: nM
Ki: 23.3

STRUCTURE_SMILES: Cc1cnc(N2CCN(c3ccccn3)CC2)nc1N
UNIT_TEXT: nM
Ki: 84.1

STRUCTURE_SMILES: N#Cc1cnc(N2CCN(c3ccccn3)CC2)nc1N
UNIT_TEXT: nM
Ki: 7.5

STRUCTURE_SMILES: CCOC(=O)c1cnc(N2C3CCC2CN(c2ccccn2)C3)nc1N
UNIT_TEXT: nM
Ki: 11.6

STRUCTURE_SMILES: COc1ccc(C(=O)Nc2ccc(N3CCN(c4ccccn4)CC3)cn2)cc1
UNIT_TEXT: nM
Ki: 5

STRUCTURE_SMILES: CCOC(=O)c1cnc(N2CCCN(c3ccccn3)CC2)nc1N
UNIT_TEXT: nM
Ki: 8.9

STRUCTURE_SMILES: CCOC(=O)c1cnc(N2C3CCC2CN(c2cc4ccccc4cn2)C3)nc1N
UNIT_TEXT: nM
Ki: 26.3

###

Target: α-synuclein fibrils (Homo sapiens)
Test: Competitive radioligand binding with [^3H]BF2846 on α-synuclein fibrils
Conditions: [^3H]BF2846, α-synuclein fibrils; mean + Sd, n = 3; read-out: α-syn Ki
pKi: −log10 of the molar value.
MEASUREMENT_TYPE: pKi

STRUCTURE_SMILES: CCOC(=O)c1cnc(N2CCN(c3cnccn3)CC2)nc1N
NUMERIC_VALUE: 8.08

STRUCTURE_SMILES: COc1ccc(NC(=O)c2cnc(N3CCN(c4nc5ccccc5o4)CC3)nc2N)cc1
NUMERIC_VALUE: 8.22

STRUCTURE_SMILES: CCOC(=O)c1cnc(N2CCN(c3ccc(OC)cc3)CC2)nc1N
NUMERIC_VALUE: 7.89

STRUCTURE_SMILES: Nc1nc(N2CCN(c3ccccn3)CC2)ncc1C(=O)Nc1ccc(OC[C@H](O)CF)cc1
NUMERIC_VALUE: 7.77

STRUCTURE_SMILES: O=C(Nc1ccc(N2C3CCC2CN(c2ccccn2)C3)cc1)c1ccc(OCCF)cc1
NUMERIC_VALUE: 7.90

STRUCTURE_SMILES: CCOC(=O)c1cnc(N2CCN(c3nc4ccccc4s3)CC2)nc1N
NUMERIC_VALUE: 7.89

STRUCTURE_SMILES: CCOC(=O)c1cnc(N2CCN(c3cc4ccccc4cn3)CC2)nc1N
NUMERIC_VALUE: 7.92
